I'd appreciate it if you could supply pIC50 values for the items below.
target: HLA-DR DRB1*0404 (human); experiment: competition with 125I-labeled reference peptide, purified HLA
Give bare numbers, as −log10 of the molar value.

Please review the entries below; each comes with its answer.
FNPMIVELAEKTMKE (modifications not checked) [Flu.PA.12] = 6.21
LKQYDSDEPELRSLS (modifications not checked) [Flu.PA.393] = 5.24
RNYFTAEVSHCRATE (modifications not checked) [Flu.PA.446] = 5.12
ALQLLFEVEQEIRTF (modifications not checked) [Flu.NS2.178] = 5.67

Would you be so kind as to report pIC50 for each listed record?
1. RREVHIYYLEKANKI (modifications not checked) [Flu.PA.127]
2. QLLLEVEQEIRTFSF (modifications not checked) [Flu.NS2.180]

[6.74, 5.80]
